Source of measurements: the MegaScale stability set (Tsuboyama et al. 2023)

B1: 2M8U (parent)
chain: TKAQVIEAFKVFDRDGNGYVTVDYLRKVLNELGDMMPADEIEEMIYEADPQNSGYVQYETFVGMLFL

- Variants of: B1
- ASSAY_NOTES: folding stability dG (cDNA display proteolysis); higher = more stable
- PARTICULARS: PBS, room temperature
Here the recorded folding stability dG is given for each entry.
Just the number in kcal/mol, nothing appended.

Examples from the recorded data:
{"VARIANT_DESCRIPTOR": "K10F", "QUANTITY_MEASURED": "folding stability dG", "OBSERVED": 3.21}
{"VARIANT_DESCRIPTOR": "V11F", "QUANTITY_MEASURED": "folding stability dG", "OBSERVED": 3.01}
{"VARIANT_DESCRIPTOR": "Q4G", "QUANTITY_MEASURED": "folding stability dG", "OBSERVED": 2.99}
{"VARIANT_DESCRIPTOR": "M44F", "QUANTITY_MEASURED": "folding stability dG", "OBSERVED": 3.09}

Kindly consider the entry below.
What value of folding stability dG has been recorded for this entry: E42C
3.11
